# Tested on: RPMI-8226
# assay method text: Cytotoxic activity against human RPMI8226 cells after 72 hrs by MTS assay
# Format: functional, cell-based
# settings: RPMI-8226, 72 h
Reported log10(IC50) is given for each of the following compounds.
A value of 2 here means IC50 of 100 in nM, since values are log10.

A selection of reference data follows.
CC(C)C[C@H](NC(=O)[C@H](Cc1ccccc1)NC(=O)C[C@@H](NC(=O)c1ccc2ccccc2c1)c1ccccc1)C(=O)[C@@]1(C)CO1    2.36
CC(C)C[C@H](NC(=O)[C@H](Cc1ccccc1)NC(=O)CC(NC(=O)c1ccccc1)c1ccccc1)C(=O)[C@@]1(C)CO1 (stereo partly specified)    3.23
CC(C)C[C@H](NC(=O)[C@H](CCc1ccccc1)NC(=O)CN1CCOCC1)C(=O)N[C@@H](Cc1ccccc1)C(=O)N[C@@H](CC(C)C)C(=O)[C@@]1(C)CO1    1.12
CC(C)C[C@H](NC(=O)[C@H](Cc1ccccc1)NC(=O)CC(NC(=O)c1ccc2ccccc2c1)c1ccccc1)C(=O)[C@@]1(C)CO1 (stereo partly specified)    2.62
CC(C)C[C@H](NC(=O)[C@H](Cc1ccccc1)NC(=O)CC(NC(=O)c1ccc(F)cc1)c1ccccc1)C(=O)[C@@]1(C)CO1 (stereo partly specified)    3.19

Enter measured log10(IC50), system RPMI-8226, for the compound shown: COc1ccc(C(=O)NC(CC(=O)N[C@@H](Cc2ccccc2)C(=O)N[C@@H](CC(C)C)C(=O)[C@@]2(C)CO2)c2ccccc2)cc1 (stereo partly specified)
3.06

###

# subject of test: 26S proteasome (Homo sapiens) (UniProt Q99460+P49721+P20618+P28074+P28062+P28065+P28072+O00487+P25786+P25787+P25788+P25789+P28066+P60900+O14818+Q8TAA3+P40306+A5LHX3+P49720+P28070+Q99436+Q16186+P35998+P62191+P43686+P62333+P17980+P62195+Q13200+O43242+O00232+O00231+Q15008+P51665+Q9UNM6+P55036+P48556+P60896)
# assay method text: Inhibition of chymotrypsin-like enzyme activity of purified human 20S proteasome using Suc-Leu-Leu-Val-Tyr-AMC as substrate at 1 ug/ml by fluorescence method
# Assay type: protein-complex assay
Reported inhibition is given for each of the following molecules.

A selection of reference data follows.
CC(C)C[C@H](NC(=O)[C@H](Cc1ccccc1)NC(=O)CC(NC(=O)c1cnccn1)c1ccccc1)C(=O)[C@@]1(C)CO1 (stereo partly drawn)    48.6%
CC(C)C[C@H](NC(=O)c1ccccc1)C(=O)NC(CC(=O)N[C@@H](CC(C)C)C(=O)[C@@]1(C)CO1)c1ccccc1 (stereo partly drawn)    6.42%
CC(C)C[C@H](NC(=O)[C@H](Cc1ccccc1)NC(=O)C[C@@H](NC(=O)c1ccc2ccccc2c1)c1ccccc1)C(=O)[C@@]1(C)CO1    86.1%

Given the molecule CC(C)C[C@H](NC(=O)c1cccnc1)C(=O)NC(CC(=O)N[C@@H](Cc1ccccc1)C(=O)[C@@]1(C)CO1)c1ccccc1 (stereo partly drawn) , write its reported inhibition.
3.16%

###

Reported pIC50 is given for each of the following molecules.
# subject of test: 26S proteasome
# assay method text: Inhibition of chymotrypsin-like enzyme activity of purified human 20S proteasome using Suc-Leu-Leu-Val-Tyr-AMC as substrate by fluorescence method
// returns pIC50 (minus log10 of molar concentration), number only

CC(C)C[C@H](NC(=O)[C@H](Cc1ccccc1)NC(=O)CC(NC(=O)c1ccc(C(F)(F)F)cc1)c1ccccc1)C(=O)[C@@]1(C)CO1 (stereo partly specified)    6.66

Given the molecule CC(C)C[C@H](NC(=O)[C@H](Cc1ccccc1)NC(=O)CC(NC(=O)c1cccnc1)c1ccccc1)C(=O)[C@@]1(C)CO1 (stereo partly specified) , write its reported pIC50.
6.47

Given the molecule COc1ccc(C(=O)NC(CC(=O)N[C@@H](Cc2ccccc2)C(=O)N[C@@H](CC(C)C)C(=O)[C@@]2(C)CO2)c2ccccc2)cc1 (stereo partly specified) , write its reported pIC50.
6.47

Given the molecule `CC(C)C[C@H](NC(=O)[C@H](Cc1ccccc1)NC(=O)C[C@@H](NC(=O)c1ccc2ccccc2c1)c1ccccc1)C(=O)[C@@]1(C)CO1` , write its reported pIC50.
6.96
